Tested on: Listeria innocua 171
assay.summary: Experiment 2: octanoate esterase substrates with different Indoxyl-based chromogenic markers
Format: cell-based
setup.conditions: IT 48 h, 37° C., substrate 250 mg/l
measurement.type: C (color of the colonies)

CCCCCCCC(=O)Oc1c[nH]c2cc(Cl)ccc12 [Pink-C8, 6-Chloro-3-indolyl octanoate] :: pink
CCCCCCCC(=O)Oc1c[nH]c2ccc(Br)cc12 [Blue-C8, 5-Bromo-3-indolyl octanoate] :: gray

* * *

System: Listeria grayi ATCC 19120
assay.summary: Experiment 3: detecting an esterase activity in liquid medium (API-type strips)
Format: cell-based
Parameters: key: —: the symbol “-” corresponds to the absence of color or intensity; 0 corresponds to no activity; 0.1 corresponds to a trace of color; 0.5 corresponds to very pale coloration; 1 corresponds to clear but low-intensity coloration; 1.5 corresponds to a degree of coloration intermediate between scores 1 and 2; 2 corresponds to clear coloration of moderate intensity; 2.5 corresponds to a degree of coloration intermediate between scores 2 and 3; 3 corresponds to intense coloration; 3.5 corresponds to a degree of coloration intermediate between scores 3 and 4; 4 corresponds to very intense coloration
setup.conditions: IT 8 h, 37° C.
measurement.type: I (intensity of the color)

CCCCCCCC(=O)Oc1c[nH]c2cc(Cl)ccc12 [Pink-C8, 6-Chloro-3-indolyl octanoate] :: —
CC(=O)Oc1c[nH]c2ccc(Br)c(Cl)c12 [X-C2, 5-Bromo-4-chloro-3-indolyl acetate] :: 3
CC(=O)Oc1c[nH]c2ccccc12 [Y-C2, 3-Indolyl acetate] :: 4
CCCCCCCC(=O)Oc1c[nH]c2cc(Cl)c(Br)cc12 [Magenta-C8, 5-Bromo-6-chloro-3-indolyl octanoate] :: —
CCCCCCCC(=O)Oc1c[nH]c2ccc(Br)c(Cl)c12 [X-C8, 5-Bromo-4-chloro-3-indolyl octanoate] :: —

Note: attention shifts to another entry.
Suppose we examine the compound CCCC(=O)Oc1c[nH]c2ccc(Br)c(Cl)c12 [X-C4, 5-Bromo-4-chloro-3-indolyl butyrate] ; what I (intensity of the color) value has been reported?
2

Data origin, for the record: patent US7407775B2
